Hi! I'm sharing some Ki results obtained with 5-hydroxytryptamine receptor 2A (Rattus norvegicus, UniProt P14842).
Sequence (P14842 whole entry): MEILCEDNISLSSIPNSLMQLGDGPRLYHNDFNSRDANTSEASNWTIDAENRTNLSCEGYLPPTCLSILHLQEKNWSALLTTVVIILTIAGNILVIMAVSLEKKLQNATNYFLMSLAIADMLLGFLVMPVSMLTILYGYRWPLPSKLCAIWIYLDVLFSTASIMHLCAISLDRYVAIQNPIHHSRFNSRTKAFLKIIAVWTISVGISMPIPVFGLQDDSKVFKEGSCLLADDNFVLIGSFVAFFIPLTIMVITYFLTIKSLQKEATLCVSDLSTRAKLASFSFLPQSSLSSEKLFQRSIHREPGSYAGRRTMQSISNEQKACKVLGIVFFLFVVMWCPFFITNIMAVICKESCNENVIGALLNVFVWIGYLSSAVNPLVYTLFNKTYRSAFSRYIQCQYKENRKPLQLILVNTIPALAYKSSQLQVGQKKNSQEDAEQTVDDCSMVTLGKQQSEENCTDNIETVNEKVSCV

Example compounds with recorded Ki:
Req: Recorded Ki of `Fc1ccc2c(c1)nc(N1CCN(Cc3ncc[nH]3)CC1)c1cccn12` , please.
Resp: > 10 µM

Req: Recorded Ki of `Fc1ccc2c(c1)nc(N1CCN(Cc3cnc[nH]3)CC1)c1cccn12` , please.
Resp: > 10 µM

Let's switch to this compound now.
Req: Recorded Ki of `Cc1cccc2nc(N3CCN(Cc4cnc[nH]4)CC3)c3cccn3c12` , please.
Resp: 9.81 µM

====

System: Brain
Assay: Drug level in rat brain at 0.5 mg/kg, iv
Type: ADME, organism-based
Set-up: dose 0.5 mg/kg, route intravenous
Conditions: in vivo, read-out: Drug uptake
resultType: concentration (nM)
Respond numerically; units are nM and should not be typed.

Req: Recorded concentration of `Fc1ccc2c(c1)nc(N1CCN(Cc3cnc[nH]3)CC1)c1cccn12` , please.
Resp: 90
